Test system: HDAC3
EXPERIMENT NOTES: HDAC3 enzyme activity in nuclear extracts of human tumor xenografts of treated mice
SETUP CONDITIONS: MDA-MB231 tumor grown in vivo; first value of the pair HDAC3 and HDAC4; SAHA 25 mg/kg
As shown below, each of these molecules has a reported decrease of HDAC3 enzyme activity/inhibition rate value.
MEASUREMENT LABEL: decrease of HDAC3 enzyme activity/inhibition rate (%* and)

MOLECULE	QUANTITATIVE RESULT
CCNC(=O)CC[C@@H](NC(=O)c1cc2cc(Cl)cc(Cl)c2oc1=O)C(=O)OCC [Compound Ig]	64
CCNC(=O)CC[C@@H](NC(=O)c1cc2cc(Br)cc(Br)c2oc1=O)C(=O)OCC [Compound Ih]	62
CCNC(=O)CC[C@@H](NC(=O)c1cc2cc(Cl)ccc2oc1=O)C(=O)OCC [Compound Ic]	63
CCNC(=O)CCC(NC(=O)c1cc2cc(F)ccc2oc1=O)C(=O)OCC (stereo in doubt) [Compound Ie]	60
CCNC(=O)CCC(NC(=O)c1cc2cc([N+](=O)[O-])ccc2oc1=O)C(=O)OCC (stereo in doubt) [Compound If]	65
CCNC(=O)CC[C@@H](NC(=O)c1cc2cc(Br)ccc2oc1=O)C(=O)OCC [Compound Id]	63

###

Test system: human colon cancer cells HT29
EXPERIMENT NOTES: MTT growth inhibition, HT29 cells
Assay type: cell-based
SETUP CONDITIONS: HT-29, 72 h after treatment, read-out: Drug concentration (IC50) at which 50% cancer cells survived

COMPOUND	QUALIFIER OPERATOR	IC50, µM
O=C(O)c1cc2ccccc2oc1=O	>	700
O=C(O)c1cc2cc(Br)ccc2oc1=O	=	700
CCNC(=O)CC[C@@H](NC(=O)c1cc2cc(Br)ccc2oc1=O)C(=O)OCC	=	45
CCNC(=O)CCC(NC(=O)c1cc2cc([N+](=O)[O-])ccc2oc1=O)C(=O)OCC (stereo in doubt)	=	153

###

ASSAYED SYSTEM: EZH2 (Homo sapiens)
Construct: the EZH2 enzyme was replaced with tumor protein extracts in each group; from tissue; host or cells: human tumour xenografts excised from treated nude mice
Sequence (Q15910 whole entry): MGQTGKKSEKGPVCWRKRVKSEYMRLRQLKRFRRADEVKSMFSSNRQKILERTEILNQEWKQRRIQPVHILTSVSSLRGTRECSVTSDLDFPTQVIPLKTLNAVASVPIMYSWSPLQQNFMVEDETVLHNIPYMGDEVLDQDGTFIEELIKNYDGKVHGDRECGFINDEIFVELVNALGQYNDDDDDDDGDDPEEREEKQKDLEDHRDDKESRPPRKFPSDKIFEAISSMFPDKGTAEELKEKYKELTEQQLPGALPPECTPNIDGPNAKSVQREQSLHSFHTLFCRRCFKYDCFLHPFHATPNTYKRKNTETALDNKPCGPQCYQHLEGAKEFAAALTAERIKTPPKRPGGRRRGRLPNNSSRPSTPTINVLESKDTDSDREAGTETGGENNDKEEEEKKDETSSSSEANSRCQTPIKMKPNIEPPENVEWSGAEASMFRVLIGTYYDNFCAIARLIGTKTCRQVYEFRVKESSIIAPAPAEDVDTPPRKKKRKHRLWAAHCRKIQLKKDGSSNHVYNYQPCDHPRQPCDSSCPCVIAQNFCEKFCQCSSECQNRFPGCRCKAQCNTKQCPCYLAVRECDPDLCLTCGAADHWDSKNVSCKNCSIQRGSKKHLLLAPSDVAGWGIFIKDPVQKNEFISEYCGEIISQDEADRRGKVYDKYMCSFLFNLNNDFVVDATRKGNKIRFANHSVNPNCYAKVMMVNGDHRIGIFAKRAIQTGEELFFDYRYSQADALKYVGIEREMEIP
Sequence (O75530 whole entry partner): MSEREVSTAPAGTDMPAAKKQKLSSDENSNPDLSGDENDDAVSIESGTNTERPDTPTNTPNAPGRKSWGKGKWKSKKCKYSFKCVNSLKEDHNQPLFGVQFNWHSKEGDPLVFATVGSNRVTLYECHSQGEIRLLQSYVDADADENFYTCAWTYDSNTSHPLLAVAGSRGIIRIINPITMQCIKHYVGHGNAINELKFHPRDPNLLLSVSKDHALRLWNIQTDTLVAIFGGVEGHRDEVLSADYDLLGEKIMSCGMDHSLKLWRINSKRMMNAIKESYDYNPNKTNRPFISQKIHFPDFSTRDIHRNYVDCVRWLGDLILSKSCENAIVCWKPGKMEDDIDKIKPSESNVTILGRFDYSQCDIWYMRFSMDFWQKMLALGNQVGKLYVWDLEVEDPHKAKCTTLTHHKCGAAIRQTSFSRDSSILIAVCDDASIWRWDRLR
Sequence (Q15022 whole entry partner): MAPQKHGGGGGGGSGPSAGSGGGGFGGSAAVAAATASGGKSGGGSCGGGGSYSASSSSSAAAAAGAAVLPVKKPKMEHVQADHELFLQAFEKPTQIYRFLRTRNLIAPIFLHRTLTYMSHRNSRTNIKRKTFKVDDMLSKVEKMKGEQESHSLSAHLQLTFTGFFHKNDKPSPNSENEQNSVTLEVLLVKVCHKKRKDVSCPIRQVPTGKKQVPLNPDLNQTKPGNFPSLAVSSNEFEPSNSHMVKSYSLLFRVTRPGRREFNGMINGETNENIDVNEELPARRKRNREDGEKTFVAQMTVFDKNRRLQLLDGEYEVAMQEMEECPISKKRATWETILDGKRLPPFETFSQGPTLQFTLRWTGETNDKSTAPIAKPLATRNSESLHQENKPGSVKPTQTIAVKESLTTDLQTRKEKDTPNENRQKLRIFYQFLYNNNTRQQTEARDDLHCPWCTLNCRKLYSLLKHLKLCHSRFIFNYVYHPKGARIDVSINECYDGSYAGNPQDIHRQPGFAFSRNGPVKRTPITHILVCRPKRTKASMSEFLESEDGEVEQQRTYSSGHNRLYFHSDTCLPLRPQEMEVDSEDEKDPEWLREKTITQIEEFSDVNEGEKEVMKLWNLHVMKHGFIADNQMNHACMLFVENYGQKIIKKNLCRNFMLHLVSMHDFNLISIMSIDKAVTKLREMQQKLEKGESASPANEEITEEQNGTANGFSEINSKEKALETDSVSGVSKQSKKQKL
EXPERIMENT NOTES: EZH2 enzyme activity in protein extracts of human tumor xenografts of treated mice (EZH2 Assay Kit)
Format: in vivo
SETUP CONDITIONS: SMMC7721 tumor grown in vivo; tumors excised 6 h after medication; SAHA 25 mg/kg
Here the recorded decrease of EZH2 enzyme activity/inhibition rate is given for each entry.
MEASUREMENT LABEL: decrease of EZH2 enzyme activity/inhibition rate

COMPOUND	RESULT
CCNC(=O)CCC(NC(=O)c1cc2ccccc2oc1=O)C(=O)OCC (centres unmarked)	57%*(SMMC-7721)
CCNC(=O)CC[C@@H](NC(=O)c1cc2cc(Cl)ccc2oc1=O)C(=O)OCC	59%*(SMMC7721);
CCNC(=O)CCC(NC(=O)c1cc2cc(F)ccc2oc1=O)C(=O)OCC (stereo in doubt)	56%*(SMMC7721);
CCNC(=O)CC[C@@H](NC(=O)c1cc2cc(Br)ccc2oc1=O)C(=O)OCC	59%*(SMMC7721);
CCNC(=O)CCC(NC(=O)c1cc2cc([N+](=O)[O-])ccc2oc1=O)C(=O)OCC (stereo in doubt)	64%*(SMMC7721);
CCNC(=O)CCC(NC(=O)c1cc2ccccc2oc1=O)C(=O)OC (centres unmarked)	54%*(SMMC-7721)
CCNC(=O)CC[C@@H](NC(=O)c1cc2cc(Cl)cc(Cl)c2oc1=O)C(=O)OCC	58%*(SMMC7721);
CCNC(=O)CC[C@@H](NC(=O)c1cc2cc(Br)cc(Br)c2oc1=O)C(=O)OCC	56%*(SMMC7721);

###

Tested on: mouse melanoma cells B16
EXPERIMENT NOTES: MTT growth inhibition, B16 cells
Assay type: cell-based
SETUP CONDITIONS: Mus musculus, 72 h after treatment, read-out: Drug concentration (IC50) at which 50% cancer cells survived
pIC50: −log10 of the molar value.

MOLECULE	pIC50
O=C(O)c1cc2cc([N+](=O)[O-])ccc2oc1=O	3.17
O=C(O)c1cc2cc(Cl)ccc2oc1=O	3.22
CCNC(=O)CCC(NC(=O)c1cc2cc([N+](=O)[O-])ccc2oc1=O)C(=O)OCC (stereo in doubt)	3.55
CCNC(=O)CC[C@@H](NC(=O)c1cc2cc(Cl)ccc2oc1=O)C(=O)OCC	3.90
O=C(O)c1cc2cc(Cl)cc(Cl)c2oc1=O	3.30
CCNC(=O)CC[C@H](N)C(=O)OCC	3.30
CCNC(=O)CCC(NC(=O)c1cc2ccccc2oc1=O)C(=O)OCC (stereo not shown)	3.96

###

Tested on: VEGFR1
EXPERIMENT NOTES: Western Blotting, VEGFR1 level
Type: cell-based
SETUP CONDITIONS: human liver cancer cells, Lewis lung cancer cells and other cancer cell lines and tumor tissues, read-out: Effective concentration (IC50) for inhibition of VEGFR1
Recorded IC50, one value per entry.

MOLECULE	IC50
CCNC(=O)CC[C@@H](NC(=O)c1cc2cc(Cl)cc(Cl)c2oc1=O)C(=O)OCC [Compound Ig]	< 100 µM
CCNC(=O)CCC(NC(=O)c1cc2cc([N+](=O)[O-])ccc2oc1=O)C(=O)OCC (stereo in doubt) [Compound If]	< 90 µM
CCNC(=O)CCC(NC(=O)c1cc2ccccc2oc1=O)C(=O)OC (centres unmarked) [Compound Ia]	< 125 µM
CCNC(=O)CC[C@@H](NC(=O)c1cc2cc(Cl)ccc2oc1=O)C(=O)OCC [Compound Ic]	< 100 µM
CCNC(=O)CC[C@@H](NC(=O)c1cc2cc(Br)ccc2oc1=O)C(=O)OCC [Compound Id]	< 100 µM
CCNC(=O)CCC(NC(=O)c1cc2ccccc2oc1=O)C(=O)OCC (centres unmarked) [Compound Ib]	< 120 µM
CCNC(=O)CC[C@@H](NC(=O)c1cc2cc(Br)cc(Br)c2oc1=O)C(=O)OCC [Compound Ih]	< 100 µM
CCNC(=O)CCC(NC(=O)c1cc2cc(F)ccc2oc1=O)C(=O)OCC (stereo in doubt) [Compound Ie]	< 110 µM

###

// pIC50 lookup, one value per entry
Tested on: human colon cancer cells HT29
EXPERIMENT NOTES: MTT growth inhibition, HT29 cells
Format: cell-based
SETUP CONDITIONS: HT-29, 72 h after treatment, read-out: Drug concentration (IC50) at which 50% cancer cells survived
Description: […] (5) Colorimetric analysis: the wavelength was selected as 570 nm, the light absorbance (A value) of each well was determined on the microplate reader and the results were recorded; the experiment was repeated for three times; (6) the experimental results were calculated according to the following formula: relative survival rate=(A value of each experimental group/A value of cell control group)×100% […] IC50 of the detected component was calculated by using a regression equation.
pIC50: −log10 of the molar value.

COMPOUND	pIC50
CCNC(=O)CCC(NC(=O)c1cc2cc(F)ccc2oc1=O)C(=O)OCC (stereo in doubt) [Compound Ie]	3.62
CCNC(=O)CC[C@@H](NC(=O)c1cc2cc(Cl)ccc2oc1=O)C(=O)OCC [Compound Ic]	3.98
CCNC(=O)CC[C@@H](NC(=O)c1cc2cc(Cl)cc(Cl)c2oc1=O)C(=O)OCC [Compound Ig]	4.00
CCNC(=O)CC[C@@H](NC(=O)c1cc2cc(Br)cc(Br)c2oc1=O)C(=O)OCC [Compound Ih]	3.97
CCNC(=O)CC[C@H](N)C(=O)OCC [Compound IIb, theanine ethyl ester]	3.22
CCNC(=O)CCC(NC(=O)c1cc2ccccc2oc1=O)C(=O)OC (stereo not shown) [Compound Ia]	4.21
O=C(O)c1cc2cc(F)ccc2oc1=O [Compound IIIe, 6-fluorocoumarin-3-carboxylic acid]	3.24

###

Listing: IC50 of selected compounds
Test system: highly metastatic Lewis lung cancer cell lines
EXPERIMENT NOTES: MTT growth inhibition, LLC cells
Type: cell-based, mouse
SETUP CONDITIONS: Mus musculus, Lewis lung carcinoma, 72 h after treatment, read-out: Drug concentration (IC50) at which 50% cancer cells survived

COMPOUND	ASSAYED SYSTEM	QUALIFIER OPERATOR	IC50 [µM]
CCNC(=O)CCC(NC(=O)c1cc2cc(F)ccc2oc1=O)C(=O)OCC (stereo in doubt)	highly metastatic Lewis lung cancer cell lines	=	110
CCNC(=O)CC[C@@H](NC(=O)c1cc2cc(Cl)cc(Cl)c2oc1=O)C(=O)OCC	highly metastatic Lewis lung cancer cell lines	=	36
O=C(O)c1cc2cc(Cl)cc(Cl)c2oc1=O	highly metastatic Lewis lung cancer cell lines	=	250
CCNC(=O)CC[C@H](N)C(=O)OC	highly metastatic Lewis lung cancer cell lines	=	100
O=C(O)c1cc2ccccc2oc1=O	highly metastatic Lewis lung cancer cell lines	>	700

Data provenance: patent US9518038B2
